Reference source: ChEMBL document CHEMBL4145492

Please go through the items and note down their selectivity ratio.
assay: Selectivity index, ratio of CC50 for human MT4 cells to EC50 for wild type HIV1 3B; assay type: toxicity; settings: read-out: Ratio CC50/EC50
Reply with just the number.

Name the recorded selectivity ratio of the item `COc1ccccc1-c1cc(C)c(Nc2ccnc(Nc3ccc(C#N)cc3)n2)c(C)c1` in your answer.
316

Name the recorded selectivity ratio of the item `Cc1cc(-c2ccccc2Cl)cc(C)c1Nc1ccnc(Nc2ccc(C#N)cc2)n1` in your answer.
1150

Name the recorded selectivity ratio of the item `Cc1cc(-c2cc(F)cc(F)c2)cc(C)c1Nc1ccnc(Nc2ccc(C#N)cc2)n1` in your answer.
120

Name the recorded selectivity ratio of the item `COc1cccc(-c2cc(C)c(Nc3ccnc(Nc4ccc(C#N)cc4)n3)c(C)c2)c1` in your answer.
1050

Name the recorded selectivity ratio of the item `Cc1cc(-c2cc(Cl)cc(Cl)c2)cc(C)c1Nc1ccnc(Nc2ccc(C#N)cc2)n1` in your answer.
125

Name the recorded selectivity ratio of the item `Cc1cc(-c2ccc(C(F)(F)F)cc2)cc(C)c1Nc1ccnc(Nc2ccc(C#N)cc2)n1` in your answer.
418

Name the recorded selectivity ratio of the item `Cc1cccc(-c2cc(C)c(Nc3ccnc(Nc4ccc(C#N)cc4)n3)c(C)c2)c1` in your answer.
622

Name the recorded selectivity ratio of the item `Cc1cc(-c2ccc(F)cc2)cc(C)c1Nc1ccnc(Nc2ccc(C#N)cc2)n1` in your answer.
2950

Name the recorded selectivity ratio of the item `Cc1cc(-c2cccc(C(F)(F)F)c2)cc(C)c1Nc1ccnc(Nc2ccc(C#N)cc2)n1` in your answer.
477

Name the recorded selectivity ratio of the item `Cc1cc(-c2ccccc2C(F)(F)F)cc(C)c1Nc1ccnc(Nc2ccc(C#N)cc2)n1` in your answer.
606

Name the recorded selectivity ratio of the item `Cc1cc(-c2ccccc2)cc(C)c1Nc1ccnc(Nc2ccc(C#N)cc2)n1` in your answer.
1520

Name the recorded selectivity ratio of the item `Cc1cc(C)cc(-c2cc(C)c(Nc3ccnc(Nc4ccc(C#N)cc4)n3)c(C)c2)c1` in your answer.
177

Name the recorded selectivity ratio of the item `Cc1ccccc1-c1cc(C)c(Nc2ccnc(Nc3ccc(C#N)cc3)n2)c(C)c1` in your answer.
1580

Name the recorded selectivity ratio of the item `Cc1cc(-c2ccc(Cl)cc2)cc(C)c1Nc1ccnc(Nc2ccc(C#N)cc2)n1` in your answer.
1130

Name the recorded selectivity ratio of the item `Cc1ccc(-c2cc(C)c(Nc3ccnc(Nc4ccc(C#N)cc4)n3)c(C)c2)cc1` in your answer.
1540

Name the recorded selectivity ratio of the item `Cc1cc(-c2ccccc2F)cc(C)c1Nc1ccnc(Nc2ccc(C#N)cc2)n1` in your answer.
1540

Name the recorded selectivity ratio of the item `Cc1cc(-c2cccc(C#N)c2)cc(C)c1Nc1ccnc(Nc2ccc(C#N)cc2)n1` in your answer.
601

###

system: Human immunodeficiency virus 1; assay: Antiviral activity against HIV1 harboring reverse transcriptase K103N mutant infected in human MT4 cells assessed as reduction of virus-induced cytopathic effect after 4 days by MTT assay; format: functional, organism-based; details: Human immunodeficiency virus 1, MT4, 96 h
measure: log10 EC50 (log10 of the value in nM)
Note the log scale: values are log10 of EC50 expressed in nM.

Name the recorded log10 EC50 of the item `Cc1cc(C#N)cc(C)c1Oc1nc(Nc2ccc(C#N)cc2)nc(N)c1Br` in your answer.
0.18

Name the recorded log10 EC50 of the item `Cc1cc(-c2ccc(F)cc2)cc(C)c1Nc1ccnc(Nc2ccc(C#N)cc2)n1` in your answer.
0.36

Name the recorded log10 EC50 of the item `Cc1cc(-c2ccccc2F)cc(C)c1Nc1ccnc(Nc2ccc(C#N)cc2)n1` in your answer.
0.51

Name the recorded log10 EC50 of the item `Cc1cc(-c2ccc(C#N)cc2)cc(C)c1Nc1ccnc(Nc2ccc(C#N)cc2)n1` in your answer.
-0.08

Name the recorded log10 EC50 of the item `O=C1Nc2ccc(Cl)cc2[C@@](C#CC2CC2)(C(F)(F)F)O1` in your answer.
1.28

Name the recorded log10 EC50 of the item `Cc1ccnc2c1NC(=O)c1cccnc1N2C1CC1` in your answer.
3.27

Name the recorded log10 EC50 of the item `Cc1cc(-c2cccc(C#N)c2)cc(C)c1Nc1ccnc(Nc2ccc(C#N)cc2)n1` in your answer.
0.36

Name the recorded log10 EC50 of the item `Cc1cn([C@H]2C[C@H](N=[N+]=[N-])[C@@H](CO)O2)c(=O)[nH]c1=O` in your answer.
0.28

###

Please go through the items and note down their EC50.
tested on: Human immunodeficiency virus 1; test: Antiviral activity against HIV1 harboring reverse transcriptase Y181C mutant infected in human MT4 cells assessed as reduction of virus-induced cytopathic effect after 4 days by MTT assay; assay type: functional, organism-based; conditions: Human immunodeficiency virus 1, MT4, 96 h
Please give a number only; it is taken to be in nM.

Name the recorded EC50 of the item `Cc1cn([C@H]2C[C@H](N=[N+]=[N-])[C@@H](CO)O2)c(=O)[nH]c1=O` in your answer.
1.7

Name the recorded EC50 of the item `Cc1cc(-c2ccc(F)cc2)cc(C)c1Nc1ccnc(Nc2ccc(C#N)cc2)n1` in your answer.
8.3

Name the recorded EC50 of the item `Cc1cc(-c2ccccc2F)cc(C)c1Nc1ccnc(Nc2ccc(C#N)cc2)n1` in your answer.
8

Name the recorded EC50 of the item `Cc1cc(-c2cccc(C#N)c2)cc(C)c1Nc1ccnc(Nc2ccc(C#N)cc2)n1` in your answer.
11

Name the recorded EC50 of the item `O=C1Nc2ccc(Cl)cc2[C@@](C#CC2CC2)(C(F)(F)F)O1` in your answer.
1.5

Name the recorded EC50 of the item `Cc1cc(C#N)cc(C)c1Oc1nc(Nc2ccc(C#N)cc2)nc(N)c1Br` in your answer.
8.1

Name the recorded EC50 of the item `Cc1cc(-c2ccc(C#N)cc2)cc(C)c1Nc1ccnc(Nc2ccc(C#N)cc2)n1` in your answer.
1.5

###

Please go through the items and note down their selectivity ratio.
test: Selectivity index, ratio of CC50 for human MT4 cells to EC50 for wild type HIV1 3B; assay type: toxicity; conditions: read-out: Ratio CC50/EC50
Reply with just the number.

Name the recorded selectivity ratio of the item `Cc1cc(-c2ccc(C#N)cc2)cc(C)c1Nc1ccnc(Nc2ccc(C#N)cc2)n1` in your answer.
2060

Name the recorded selectivity ratio of the item `Cc1cc(-c2c(C)cccc2C)cc(C)c1Nc1ccnc(Nc2ccc(C#N)cc2)n1` in your answer.
364

Name the recorded selectivity ratio of the item `Cc1cc(-c2cccc(Cl)c2)cc(C)c1Nc1ccnc(Nc2ccc(C#N)cc2)n1` in your answer.
409

Name the recorded selectivity ratio of the item `COc1ccc(-c2cc(C)c(Nc3ccnc(Nc4ccc(C#N)cc4)n3)c(C)c2)cc1` in your answer.
1200

Name the recorded selectivity ratio of the item `Cc1cc(-c2cccc(F)c2)cc(C)c1Nc1ccnc(Nc2ccc(C#N)cc2)n1` in your answer.
2380

###

Please go through the items and note down their EC50.
test system: Human immunodeficiency virus 1; assay: Antiviral activity against wild type HIV1 3B infected in human MT4 cells assessed as reduction of virus-induced cytopathic effect after 4 days by MTT assay; assay type: functional, organism-based; settings: Human immunodeficiency virus 1, 3B, MT4, 96 h
Please state the number and follow it with the unit.

Name the recorded EC50 of the item `Cc1cc(-c2cccc(Cl)c2)cc(C)c1Nc1ccnc(Nc2ccc(C#N)cc2)n1` in your answer.
5.3 nM

Name the recorded EC50 of the item `Cc1cc(-c2ccccc2Cl)cc(C)c1Nc1ccnc(Nc2ccc(C#N)cc2)n1` in your answer.
2.6 nM

Name the recorded EC50 of the item `Cc1cc(-c2ccc(C#N)cc2)cc(C)c1Nc1ccnc(Nc2ccc(C#N)cc2)n1` in your answer.
1 nM

Name the recorded EC50 of the item `Cc1cccc(-c2cc(C)c(Nc3ccnc(Nc4ccc(C#N)cc4)n3)c(C)c2)c1` in your answer.
5.9 nM

Name the recorded EC50 of the item `Cc1cc(-c2ccccc2F)cc(C)c1Nc1ccnc(Nc2ccc(C#N)cc2)n1` in your answer.
1.4 nM

Name the recorded EC50 of the item `Cc1cc(-c2ccccc2C(F)(F)F)cc(C)c1Nc1ccnc(Nc2ccc(C#N)cc2)n1` in your answer.
6.9 nM

Name the recorded EC50 of the item `Cc1ccnc2c1NC(=O)c1cccnc1N2C1CC1` in your answer.
24 nM

Name the recorded EC50 of the item `Cc1cc(-c2ccc(Cl)cc2)cc(C)c1Nc1ccnc(Nc2ccc(C#N)cc2)n1` in your answer.
3.7 nM

Name the recorded EC50 of the item `Cc1cc(-c2cc(F)cc(F)c2)cc(C)c1Nc1ccnc(Nc2ccc(C#N)cc2)n1` in your answer.
33 nM

Name the recorded EC50 of the item `Cc1cn([C@H]2C[C@H](N=[N+]=[N-])[C@@H](CO)O2)c(=O)[nH]c1=O` in your answer.
2.1 nM

Name the recorded EC50 of the item `Cc1ccc(-c2cc(C)c(Nc3ccnc(Nc4ccc(C#N)cc4)n3)c(C)c2)cc1` in your answer.
3.6 nM

Name the recorded EC50 of the item `COc1ccc(-c2cc(C)c(Nc3ccnc(Nc4ccc(C#N)cc4)n3)c(C)c2)cc1` in your answer.
2.4 nM

Name the recorded EC50 of the item `Cc1cc(-c2ccccc2)cc(C)c1Nc1ccnc(Nc2ccc(C#N)cc2)n1` in your answer.
2.8 nM

Name the recorded EC50 of the item `Cc1ccccc1-c1cc(C)c(Nc2ccnc(Nc3ccc(C#N)cc3)n2)c(C)c1` in your answer.
2.4 nM

Name the recorded EC50 of the item `Cc1cc(-c2cccc(C#N)c2)cc(C)c1Nc1ccnc(Nc2ccc(C#N)cc2)n1` in your answer.
1.5 nM

Name the recorded EC50 of the item `O=C1Nc2ccc(Cl)cc2[C@@](C#CC2CC2)(C(F)(F)F)O1` in your answer.
0.43 nM

Name the recorded EC50 of the item `Cc1cc(-c2ccc(C(F)(F)F)cc2)cc(C)c1Nc1ccnc(Nc2ccc(C#N)cc2)n1` in your answer.
10 nM

Name the recorded EC50 of the item `Cc1cc(-c2cc(Cl)cc(Cl)c2)cc(C)c1Nc1ccnc(Nc2ccc(C#N)cc2)n1` in your answer.
34 nM

Name the recorded EC50 of the item `Cc1cc(-c2c(C)cccc2C)cc(C)c1Nc1ccnc(Nc2ccc(C#N)cc2)n1` in your answer.
7.1 nM

Name the recorded EC50 of the item `Cc1cc(C#N)cc(C)c1Oc1nc(Nc2ccc(C#N)cc2)nc(N)c1Br` in your answer.
1.5 nM

Name the recorded EC50 of the item `Cc1cc(-c2ccc(F)cc2)cc(C)c1Nc1ccnc(Nc2ccc(C#N)cc2)n1` in your answer.
1.4 nM

Name the recorded EC50 of the item `COc1ccccc1-c1cc(C)c(Nc2ccnc(Nc3ccc(C#N)cc3)n2)c(C)c1` in your answer.
3 nM

Name the recorded EC50 of the item `Cc1cc(C)cc(-c2cc(C)c(Nc3ccnc(Nc4ccc(C#N)cc4)n3)c(C)c2)c1` in your answer.
23 nM

Name the recorded EC50 of the item `Cc1cc(-c2cccc(F)c2)cc(C)c1Nc1ccnc(Nc2ccc(C#N)cc2)n1` in your answer.
1.7 nM

Name the recorded EC50 of the item `Cc1cc(-c2cccc(C(F)(F)F)c2)cc(C)c1Nc1ccnc(Nc2ccc(C#N)cc2)n1` in your answer.
8.4 nM

Name the recorded EC50 of the item `COc1cccc(-c2cc(C)c(Nc3ccnc(Nc4ccc(C#N)cc4)n3)c(C)c2)c1` in your answer.
2.9 nM
